target-of-assay: Neu5Ac(a2-3)Gal(b1-4)[Fuc(a1-3)]GlcNAc(b1-3)GalNAc
protocol-description: glycan array binding signal (z-score within array); higher = stronger binding
test-parameters: glycan notation: IUPAC condensed, linker removed
This is one part of a sample in which the strongest signals are shown more often than they occur.

| binder | glycan array binding signal (z-score) |
| --- | --- |
| CTAEGIKKFEGDGYELFKDNFPAGEKFDNDDTNDQFYTVIF [MUB40 (Lactobacillus reuteri)] | 0.351 |
| Clec2 (Mus musculus), Q9JL99 (protein) MQDEDGYITLNIKPRKQALSSAEPASSWWRVMALVLLISSMGLVVGLVALGIMSVTQQKYLLAEKENLSATLQQLAKKFCQELIRQSEIKTKSTFEHKCSPCATKWRYHGDSCYGFFRRNLTWEESKQYCTEQNATLVKTASQSTLDYIAERITSVRWIGLSRQNSKKDWMWEDSSVLRKNGINLSGNTEENMNCAYLHNGKIHPASCKERHYLICERNAGMTRVDQLL | 0.837 |

The measurements presented in this section are drawn from the supplement of paper PMC8728848.
